biological target: BCL2 G101V (Homo sapiens, UniProt P10415, G101V); experiment: TR-FRET competitive binding assay, BCL2 G101V; conditions: BCL2 G101V; Ki determined from IC50; read-out: TR_FRET EKI_Bcl2 G101V
# if measured Ki < 900 pM: 1  # else: -1

Known results for molecules:
[
  {
    "MOLECULE": "Cc1c(N(C(=O)c2cc(-c3cc4c(cc3C(=O)N3Cc5ccccc5C[C@H]3CN3CCCCC3)CN(C(=O)Cc3ccc(OCCN5CCC(F)CC5)cc3F)CC4)n(C)c2C)c2ccc(O)cc2)cc(C#N)n1C [Example 115]",
    "ANSWER_LABEL": 1
  },
  {
    "MOLECULE": "COc1cc(OCCN2CCOCC2)ccc1CC(=O)N1CCc2cc(-c3cc(C(=O)N(c4ccc(O)cc4)c4cc(C#N)n(C)c4C)c(C)n3C)c(C(=O)N3Cc4ccccc4C[C@H]3CN3CCCCC3)cc2C1 [Example 114]",
    "ANSWER_LABEL": 1
  },
  {
    "MOLECULE": "Cc1c(N(C(=O)c2cc(-c3cc4c(cc3C(=O)N3Cc5ccccc5C[C@H]3CN3CCCC[C@H]3C)CN(C(=O)Cc3ccc(OCCN5CCOCC5)cc3F)CC4)n(C)c2C)c2ccc(O)cc2)cc(C#N)n1C [Example 123]",
    "ANSWER_LABEL": 1
  },
  {
    "MOLECULE": "COc1ccc(N(C(=O)c2cc(-c3cc4c(cc3C(=O)N3Cc5ccccc5C[C@H]3C)CN(C(=O)Cc3ccc(OCCN5CCOCC5)cc3)CC4)n(C)c2C)c2ccc(O)cc2)cc1C#N [Example 81]",
    "ANSWER_LABEL": 1
  },
  {
    "MOLECULE": "Cc1c(N(C(=O)c2cc(-c3cc4c(cc3C(=O)N3Cc5ccccc5C[C@H]3CN3CCCCC3)CN(C(=O)Cc3ccc(OCCN5CCOC(C)(C)C5)cc3)CC4)n(C)c2C)c2ccc(O)cc2)cc(C#N)n1C [Example 121]",
    "ANSWER_LABEL": 1
  },
  {
    "MOLECULE": "Cc1c(N(C(=O)c2cc(-c3cc4c(cc3C(=O)N3Cc5ccccc5C[C@H]3C)CN(C(=O)c3n[nH]c5ccccc35)CC4)n(C)c2C)c2ccc(O)cc2)cc(C#N)n1C [Example 15]",
    "ANSWER_LABEL": -1
  }
]

stdin: # TODO verify Ki < 900 pM strictly for this molecule: Cc1c(C(=O)N(c2ccc(O)cc2)c2cc(C#N)n(C(F)F)c2C)cc(-c2cc3c(cc2C(=O)N2Cc4ccccc4C[C@H]2C)CN(C(=O)Cc2ccc(OCCN4CCOCC4)cc2F)CC3)n1C [Example 94]
stdout: -1

stdin: // same read-out, input: Cc1c(N(C(=O)c2cc(-c3cc4c(cc3C(=O)N3Cc5ccccc5C[C@H]3C)CN(C(=O)Cc3ccc(OCCN(C)C5CC5)cc3)CC4)n3c2CCCC3)c2ccc(O)cc2)cc(C#N)n1C [Example 35]
stdout: 1

stdin: // same read-out, input: Cc1c(C(=O)N(c2ccccc2)c2cnn(C(F)F)c2)cc(-c2cc3c(cc2C(=O)N2Cc4ccccc4C[C@H]2C)CN(C(=O)Cc2ccc(OCCN4CCOCC4)cc2F)CC3)n1C [Example 193]
stdout: -1

The values you see were collected from patent US20250179047A1.
